Cited source: patent US9149038B2

Test system: Key Grass and Sedge Weeds as well as Grass Crops
Experiment: Post-Emergent Test II: postemergent herbicidal activity, visual rating after 14 d (Table 8)
Type: in vivo
Conditions: post-emergence, 336 h, maize, corn (Zea mays), 140 g ai/ha, read-out: Visual Growth Reduction (%) 14 Days After Application ZEAMX
endpoint: pest or weed control at 140 g/ha

What value of measured pest or weed control at 140 g/ha is listed for Nc1cc(-c2cc3c(cc2F)OC(F)(F)O3)nc(C(=O)O)c1Cl [Compound 42] ? 75 to 84%

What value of measured pest or weed control at 140 g/ha is listed for COC(=O)c1nc(-c2c(F)cc3c(c2F)OC(F)(F)O3)cc(N)c1Cl [Compound 46] ? 75 to 84%

What value of measured pest or weed control at 140 g/ha is listed for COC(=O)c1nc(-c2ccc3c(c2)OC(F)(F)O3)nc(N)c1Cl [Compound 60] ? 85 to 94%

What value of measured pest or weed control at 140 g/ha is listed for Cc1c(-c2cc(N)c(Cl)c(C(=O)O)n2)ccc2c1OC(F)(F)O2 [Compound 36] ? 0 to 29%

What value of measured pest or weed control at 140 g/ha is listed for Nc1c(F)c(-c2ccc3c(c2F)OC(F)(F)O3)nc(C(=O)O)c1Cl [Compound 11] ? 75 to 84%

What value of measured pest or weed control at 140 g/ha is listed for C=Cc1c(C(=O)O)nc(-c2cc3c(cc2F)OC(F)(F)O3)c(F)c1N [Compound 28] ? 75 to 84%

What value of measured pest or weed control at 140 g/ha is listed for COC(=O)c1nc(-c2ccc3c(c2F)OC(F)(F)O3)cc(N)c1Cl [Compound 37] ? 85 to 94%

What value of measured pest or weed control at 140 g/ha is listed for COC(=O)c1nc(-c2cccc3c2OCO3)c(F)c(N)c1Cl [Compound 71] ? 0 to 29%

What value of measured pest or weed control at 140 g/ha is listed for COc1c(N)nc(-c2ccc3c(c2F)OC(F)(F)O3)nc1C(=O)O [Compound 66] ? 75 to 84%
